Sequence of the target: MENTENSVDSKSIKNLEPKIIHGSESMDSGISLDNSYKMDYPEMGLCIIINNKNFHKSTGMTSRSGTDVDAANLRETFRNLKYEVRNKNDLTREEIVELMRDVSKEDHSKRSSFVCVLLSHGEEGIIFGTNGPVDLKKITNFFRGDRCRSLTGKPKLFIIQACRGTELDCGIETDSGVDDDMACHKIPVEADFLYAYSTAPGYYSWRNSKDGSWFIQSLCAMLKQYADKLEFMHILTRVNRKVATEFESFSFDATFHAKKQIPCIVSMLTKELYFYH
pIC50: −log10 of the molar value.
Entry flag: y if pIC50 reaches 7; n if it does not.

structure.smiles.string | label.class
CC(=O)OCCN1C(=O)c2c(-c3ccc(C(=O)N(C)C)cc3)nc3ccc(S(=O)(=O)N4CCOCC4)cc3c2C1=O | y
CCOC(=O)C[C@@H](Nc1nc2ccc(S(=O)(=O)N3CCOCC3)cc2c2c1C(=O)N(CCOC(C)=O)C2=O)C(=O)OCC | n
CC(=O)OCCN1C(=O)c2c(C(C)C)nc3ccc(S(=O)(=O)N4CCOCC4)cc3c2C1=O | y
CC(=O)OCCN1C(=O)c2c(-c3ccco3)nc3ccc(S(=O)(=O)N4CCOCC4)cc3c2C1=O | y
CC(=O)OCCN1C(=O)c2c(C)nc3ccc(S(=O)(=O)N4CCOCC4)cc3c2C1=O | y
CC(=O)OCCN1C(=O)c2c(-c3ccccc3)nc3ccc(S(=O)(=O)N4CCOCC4)cc3c2C1=O | y
CC(=O)OCCN1C(=O)c2c(Cl)nc3ccc(S(=O)(=O)N4CCOCC4)cc3c2C1=O | n
CC(=O)OCCN1C(=O)c2c(c3cc(S(=O)(=O)N4CCOCC4)ccc3[nH]c2=O)C1=O | n

Data provenance: ChEMBL document CHEMBL1144342
